# Assayed target: glucocorticoid receptor (Homo sapiens, UniProt P04150)
# Sequence (P04150 1-777): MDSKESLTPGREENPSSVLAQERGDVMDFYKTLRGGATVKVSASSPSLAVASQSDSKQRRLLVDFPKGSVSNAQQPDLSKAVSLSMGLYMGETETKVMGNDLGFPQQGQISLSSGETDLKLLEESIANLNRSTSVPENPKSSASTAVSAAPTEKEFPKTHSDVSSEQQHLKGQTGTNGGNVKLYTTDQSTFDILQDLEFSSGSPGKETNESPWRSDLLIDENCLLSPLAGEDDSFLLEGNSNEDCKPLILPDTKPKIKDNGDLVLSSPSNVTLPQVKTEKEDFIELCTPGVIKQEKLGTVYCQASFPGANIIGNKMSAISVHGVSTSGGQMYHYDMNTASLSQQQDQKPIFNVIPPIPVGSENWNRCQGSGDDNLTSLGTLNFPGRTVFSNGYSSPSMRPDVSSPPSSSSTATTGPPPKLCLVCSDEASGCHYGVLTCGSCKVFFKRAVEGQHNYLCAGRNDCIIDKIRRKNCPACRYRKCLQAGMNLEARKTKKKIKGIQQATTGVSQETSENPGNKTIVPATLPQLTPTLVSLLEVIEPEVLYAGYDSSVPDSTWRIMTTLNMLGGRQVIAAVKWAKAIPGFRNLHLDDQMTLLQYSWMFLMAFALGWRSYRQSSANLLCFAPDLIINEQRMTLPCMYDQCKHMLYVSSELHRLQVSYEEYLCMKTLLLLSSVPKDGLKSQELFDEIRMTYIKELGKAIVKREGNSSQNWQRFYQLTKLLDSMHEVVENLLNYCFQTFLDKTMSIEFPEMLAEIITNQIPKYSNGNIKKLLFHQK
# Assay protocol: Assay for transrepression activity of the glucocorticoid agonists (NF-κB/ELAM-sPAP reporter, TNF stimulated)
# Assay type: cell-based
# Study conditions: A549 cells, NF-κB responsive ELAM promoter-sPAP reporter; compound 1 hour, then TNF 10 ng/ml for 16 hours; read-out: pEC50 transrepression (converted)
# Procedure: Assay for Transrepression Activity of the Glucocorticoid Agonists The functional assay based on that described by K. P. Ray et al., Biochem J. (1997), 328, 707-715 provides a measure of transrepressive activity of a glucocorticoid agonist. […] The cells are then stimulated with tumour necrosis factor (TNF, 10 ng/ml) for 16 hours, at which time the amount of alkaline phosphatase produced is measured by a standard colourimetric assay. […]
Property: EC50

Fill in reported EC50 for this entry: CC(C)C(C)OC(=O)O[C@]1(C(=O)OCC#N)[C@H](C)C[C@H]2[C@@H]3C[C@H](F)C4=CC(=O)C=C[C@]4(C)[C@@]3(F)[C@@H](O)C[C@@]21C (some centres unmarked)
< 0.316 nM

Tell us which EC50 value is on record for `CC(C)C(OC(=O)O[C@]1(C(=O)OCC#N)[C@H](C)C[C@H]2[C@@H]3C[C@H](F)C4=CC(=O)C=C[C@]4(C)[C@@]3(F)[C@@H](O)C[C@@]21C)C(C)C`
< 0.316 nM

Return reported EC50. Input compound: `CCC(CC)COC(=O)O[C@]1(C(=O)OCC#N)[C@H](C)C[C@H]2[C@@H]3C[C@H](F)C4=CC(=O)C=C[C@]4(C)[C@@]3(F)[C@@H](O)C[C@@]21C`
< 0.316 nM

Assign EC50 to the following record: `C[C@@H]1C[C@H]2[C@@H]3C[C@H](F)C4=CC(=O)C=C[C@]4(C)[C@@]3(F)[C@@H](O)C[C@]2(C)[C@@]1(OC(=O)OC1CCCC1)C(=O)OCC#N`
< 0.316 nM

Consider the compound `CCC(C)(C)OC(=O)O[C@]1(C(=O)OCC#N)[C@H](C)C[C@H]2[C@@H]3C[C@H](F)C4=CC(=O)C=C[C@]4(C)[C@@]3(F)[C@@H](O)C[C@@]21C` . State its measured EC50.
< 0.1 nM
